Data origin, for the record: the SangsterLogP compilation

Answer each item with its documented logP.
One number for each entry.

{"SMILES_STRUCTURE": "c1cncnc1", "QUANTITATIVE_RESULT": -0.34}

Please report logP for every entry that follows.
1. CCc1cnccn1
2. CCOC(=O)c1ccco1
3. Cc1c[nH]c2ccccc12

[0.79, 1.57, 2.61]

---

assay: method code SF-GLC, from Boikov, Yu.; Shibaev, V.; Gaidamaka, V.; V'yunov, K. (1989). Study of correlation between extraction characteristics of glycidyl ethers and theri structure. 62(1)177-179.
READOUT: logP
One number for each entry.

// below: answered molecules
{"MOLECULE": "CCCOCC1CO1 (stereo not drawn)", "logP": 0.5}
{"MOLECULE": "CCCCOCC1CO1 (stereo not drawn)", "logP": 0.55}

Annotate the molecule COCC1CO1 (stereo not drawn) with its measured logP.
0.03
